Values from patent US6087355A

Counter-ions that a name gives are not always drawn.
Consider compounds characterized by their MIC with E. faecium A491(Amp^R).
Dear colleague, please return just the value in µg/mL, with no unit written.

INSERT INTO results (compound, system, unitsofmeasure, experimentalresult) VALUES
  ('Nc1nc(/C(=N/O)C(=O)N[C@@H]2C(=O)N3C(C(=O)O)=C(Sc4ccncc4CSCCNC=O)CS[C@H]23)c(Cl)s1 [Cmpd 63, trifluoroacetic acid salt]', 'E. faecium A491(Amp^R)', 'µg/mL', 16);

Task: Given NCCCCCOCc1cnccc1SC1=C(C(=O)O)N2C(=O)[C@@H](NC(=O)/C(=N\O)c3nc(N)sc3Cl)[C@H]2SC1 [Cmpd 44, trifluoroacetic acid salt] , state its recorded MIC.
Output: 16

Task: Given CN(C)C(=O)[C@@H]1CC(SCc2cnccc2SC2=C(C(=O)O)N3C(=O)[C@@H](NC(=O)/C(=N\O)c4nc(N)sc4Cl)[C@H]3SC2)CN1 (some centres unmarked) [Cmpd 55, trifluoroacetic acid salt] , state its recorded MIC.
Output: 16

Task: Given NCC(=O)NCCSCc1cnccc1SC1=C(C(=O)O)N2C(=O)[C@@H](NC(=O)/C(=N\O)c3nc(N)sc3Cl)[C@H]2SC1 [Cmpd 29, trifluoroacetic acid salt] , state its recorded MIC.
Output: 4

Task: Given Nc1nc(/C(=N/O)C(=O)N[C@@H]2C(=O)N3C(C(=O)O)=C(Sc4ccncc4SCCNC=O)CS[C@H]23)c(Cl)s1 [Cmpd 64, trifluoroacetic acid salt] , state its recorded MIC.
Output: 16

Task: Given N=C(N)SCc1cnccc1SC1=C(C(=O)O)N2C(=O)[C@@H](NC(=O)/C(=N\O)c3nc(N)sc3Cl)[C@H]2SC1 [Cmpd 60, trifluoroacetic acid salt] , state its recorded MIC.
Output: 16

Task: Given NC(=O)[C@@H](N)CSCc1cnccc1SC1=C(C(=O)O)N2C(=O)[C@@H](NC(=O)/C(=N\O)c3nc(N)sc3Cl)[C@H]2SC1 [Cmpd 59, trifluoroacetic acid salt] , state its recorded MIC.
Output: 16

Task: Given NCCOCc1cnccc1SC1=C(C(=O)O)N2C(=O)[C@@H](NC(=O)/C(=N\O)c3nc(N)sc3Cl)[C@H]2SC1 [Cmpd 40, trifluoroacetic acid salt] , state its recorded MIC.
Output: 16

Task: Given NCCCSc1cnccc1SC1=C(C(=O)O)N2C(=O)[C@@H](NC(=O)/C(=N\O)c3nc(N)sc3Cl)[C@H]2SC1 [Cmpd 51, trifluoroacetic acid salt] , state its recorded MIC.
Output: 8
